Recorded GI50 for the following molecules
Test system: MDA-MB-231 breast cancer cell lines
TEST: Evaluation of inhibition on cell growth (MTS)
Assay type: cell-based
ASSAY_CONDITIONS: Homo sapiens, MDA-MB-231, 120 hours
Counter-ions that a name gives are not always drawn.

Use the examples below as a reference point.
MOLECULE	GI50
CN[C@@H](C)C(=O)N[C@H](C(=O)N1CCC[C@H]1C(=O)Nc1cc2c(Nc3ccc(Oc4ccccc4)cc3)ncnc2cc1OC)C(C)(C)C [Example 40, hydrochloride]	≤ 100 nM
C#CCOc1ccc(Nc2ncnc3cc(OC)c(NC(=O)[C@@H]4CCCN4C(=O)[C@@H](NC(=O)[C@H](C)NC)C(C)(C)C)cc23)cn1 [Example 84, hydrochloride]	100 to 1000 nM

Lab note: next molecule to report on.
Input CN[C@@H](C)C(=O)N[C@H](C(=O)N1CCC[C@H]1C(=O)Nc1ccc2ncnc(Nc3cccc(Cl)c3F)c2c1)C(C)(C)C [Example 4, hydrochloride] . Output GI50: 100 to 1000 nM

---

System: MDA-MB-231 breast cancer cell lines
TEST: Evaluation of inhibition on cell growth (MTS)
Type: cell-based
ASSAY_CONDITIONS: Homo sapiens, MDA-MB-231, 120 hours
Structures can show the parent of a compound that is named as a salt.
Recorded GI50 for the following molecules

Form field GI50 for item CN[C@@H](C)C(=O)N[C@H](C(=O)N1CCC[C@H]1C(=O)Nc1cc2c(Nc3ccc(Br)c(Cl)c3F)ncnc2cc1OC)C(C)(C)C [Example 87, hydrochloride] on MDA-MB-231 breast cancer cell lines: ≤ 100 nM

Form field GI50 for item CN[C@@H](C)C(=O)N[C@H](C(=O)N1CCC[C@H]1C(=O)Nc1cc2c(NCC3CCCCC3)ncnc2cc1OC)C(C)(C)C [Example 77, hydrochloride] on MDA-MB-231 breast cancer cell lines: ≤ 100 nM

Form field GI50 for item CCN(CC)c1ccc(Nc2ncnc3cc(OC)c(NC(=O)[C@@H]4CCCN4C(=O)[C@@H](NC(=O)[C@H](C)NC)C(C)(C)C)cc23)cc1Cl [Example 99, hydrochloride] on MDA-MB-231 breast cancer cell lines: ≤ 100 nM

---

Recorded GI50 for the following compounds
Test system: MDA-MB-231 breast cancer cell lines
TEST: Evaluation of inhibition on cell growth (MTS)
Assay type: cell-based
ASSAY_CONDITIONS: Homo sapiens, MDA-MB-231, 120 hours
Where a name gives a salt, the structure may show the parent alone.

Use the examples below as a reference point.
COMPOUND	TARGET_UNDER_TEST	GI50
CN[C@@H](C)C(=O)N[C@H](C(=O)N1CCC[C@H]1C(=O)Nc1cc2c(N)ncnc2cc1OC)C(C)(C)C	MDA-MB-231 breast cancer cell lines	100 to 1000 nM
CN[C@@H](C)C(=O)N[C@H](C(=O)N1CCC[C@H]1C(=O)Nc1cc2c(Nc3ccc(Cn4ccnc4)cc3)ncnc2cc1OC)C(C)(C)C [Example 111, hydrochloride]	MDA-MB-231 breast cancer cell lines	100 to 1000 nM
CCN1CCN(c2ccc(Nc3ncnc4cc(OC)c(NC(=O)[C@@H]5CCCN5C(=O)[C@@H](NC(=O)[C@H](C)NC)C(C)(C)C)cc34)cc2F)CC1 [Example 71, dihydrochloride]	MDA-MB-231 breast cancer cell lines	≤ 100 nM
CN[C@@H](C)C(=O)N[C@H](C(=O)N1CCC[C@H]1C(=O)Nc1cc2c(Nc3ccc(Cl)cc3Cl)ncnc2cc1OC)C(C)(C)C [Example 58, hydrochloride]	MDA-MB-231 breast cancer cell lines	≤ 100 nM
CN[C@@H](C)C(=O)N[C@H](C(=O)N1CCC[C@H]1C(=O)Nc1cc2c(Nc3ccc(F)c(F)c3F)ncnc2cc1OC)C(C)(C)C.Cl [Example 17, hydrochloride]	MDA-MB-231 breast cancer cell lines	≤ 100 nM

Lab note: next compound to report on.
Input `CN[C@@H](C)C(=O)N[C@H](C(=O)N1CCC[C@H]1C(=O)Nc1cc2c(Nc3cc(NC(C)=O)ccc3Cl)ncnc2cc1OC)C(C)(C)C` . Output GI50: ≤ 100 nM
